Target: human beta-3-adrenergic receptor (Homo sapiens, UniProt P13945)
Construct: Chinese hamster ovary (CHO) cells that stably express full-length human beta-3-adrenergic receptor
Sequence (P13945 whole entry): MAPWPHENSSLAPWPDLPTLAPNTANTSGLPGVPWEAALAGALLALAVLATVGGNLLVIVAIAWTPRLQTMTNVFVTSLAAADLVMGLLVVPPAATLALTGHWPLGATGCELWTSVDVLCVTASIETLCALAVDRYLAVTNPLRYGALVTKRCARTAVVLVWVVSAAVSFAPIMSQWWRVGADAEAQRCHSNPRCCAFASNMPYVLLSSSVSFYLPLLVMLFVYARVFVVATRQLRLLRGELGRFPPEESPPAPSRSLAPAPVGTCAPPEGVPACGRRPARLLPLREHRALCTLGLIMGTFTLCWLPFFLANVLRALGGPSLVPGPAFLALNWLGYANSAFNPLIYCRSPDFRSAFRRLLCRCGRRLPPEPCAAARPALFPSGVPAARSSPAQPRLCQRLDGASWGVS
Test: cAMP production (SPA) in CHO cells stably expressing human beta-3-adrenergic receptor, agonist activity
Settings: cAMP production in CHO cells expressing human beta-3-adrenergic receptor; compounds binned (≦1 μM or >1 μM); read-out: Beta-3 Agonistic Activity, EC50 values
PARAMETER: EC50

Examples with answers:
O=C(NC1CCCCC1)c1cc(-c2ccc3c(c2)CC[C@H](CNC[C@H](O)COc2ccccc2)O3)ccn1 = > 1000 nM
O=C(O)c1ccc(-c2ccc3c(c2)CC[C@H](CNC[C@H](O)COc2ccccc2)O3)cc1N1CCCCC1 = ≤ 1000 nM

Find the measured EC50 of `O=C(O)CCc1ccc2c(c1)CC[C@H](CNC[C@H](O)COc1ccccc1Cl)O2` and report it. ≤ 1000 nM

Find the measured EC50 of `O[C@@H](CNC[C@H]1CCc2cc(I)ccc2O1)COc1ccccc1` and report it. ≤ 1000 nM

----------
Target: human beta-3-adrenergic receptor (Homo sapiens)
Construct: Chinese hamster ovary (CHO) cells that stably express full-length human beta-3-adrenergic receptor
Assay: cAMP production (SPA) in CHO cells stably expressing human beta-3-adrenergic receptor, agonist activity
Conditions: cAMP production in CHO cells expressing human beta-3-adrenergic receptor; compounds binned (≦1 μM or >1 μM); read-out: Beta-3 Agonistic Activity, EC50 values
PARAMETER: EC50

Examples with answers:
CC(C)(C)c1ccc(-c2cc(-c3ccc4c(c3)CC[C@H](CNC[C@H](O)COc3ccccc3)O4)ccc2C(=O)O)cc1 [Example 220] = ≤ 1000 nM
COC(=O)c1nc(-c2ccc3c(c2)CC[C@H](CNC[C@H](O)COc2ccccc2)O3)sc1C(C)C [Example 138] = > 1000 nM
O=C(O)c1csc(-c2ccc3c(c2)CC[C@H](CNC[C@H](O)COc2ccccc2)O3)c1 [Example 186] = ≤ 1000 nM
CC(C)Oc1cc(-c2ccc3c(c2)CC[C@H](CNC[C@H](O)COc2ccccc2)O3)ccc1C(=O)O [Example 211] = ≤ 1000 nM
Cc1c(-c2ccc3c(c2)CC[C@H](CNC[C@H](O)COc2ccccc2)O3)c(C(=O)O)nn1C [Example 184] = ≤ 1000 nM
O=C(O)c1sc(-c2ccc3c(c2)CC[C@H](CNC[C@H](O)COc2ccccc2)O3)nc1-c1ccccc1 [Example 189] = ≤ 1000 nM
Cc1ccc(-c2cc(-c3ccc4c(c3)CC[C@H](CNC[C@H](O)COc3ccccc3)O4)ccc2C(=O)O)cc1 [Example 217] = ≤ 1000 nM
CCOC(=O)c1nc(-c2ccc3c(c2)CC[C@H](CNC[C@H](O)COc2ccccc2)O3)oc1-c1ccccc1 [Example 134] = > 1000 nM
O=C(O)c1ccc(-c2ccc3c(c2)CC[C@H](CNCC(O)COc2ccccc2-c2ccccc2)O3)cc1 (stereo partly drawn) [Example 239] = ≤ 1000 nM
CCOC(=O)c1sc(-c2ccc3c(c2)CC[C@H](CNC[C@H](O)COc2ccccc2)O3)nc1C(C)C [Example 137] = > 1000 nM

Find the measured EC50 of O=C(O)CCc1ccc2c(c1)CC[C@H](CNC[C@H](O)COc1ccc(F)cc1)O2 [Example 268] and report it. ≤ 1000 nM

Find the measured EC50 of CCOC(=O)c1sc(-c2ccc3c(c2)CC[C@H](CNC[C@H](O)COc2ccccc2)O3)nc1-c1ccccc1 [Example 136] and report it. > 1000 nM

Find the measured EC50 of O=C(O)c1ccc(-c2ccc3c(c2)CC[C@H](CNC[C@H](O)COc2ccccc2F)O3)cc1 [Example 253] and report it. ≤ 1000 nM

Find the measured EC50 of COC(=O)c1ccc2cc(-c3ccc4c(c3)CC[C@H](CNC[C@H](O)COc3ccccc3)O4)ccc2c1 [Example 103] and report it. ≤ 1000 nM

Find the measured EC50 of CCOc1cc(-c2ccc3c(c2)CC[C@H](CNC[C@H](O)COc2ccccc2)O3)ccc1C(=O)O [Example 207] and report it. ≤ 1000 nM

Find the measured EC50 of O=C(O)CCc1ccc2c(c1)CC[C@H](CNC[C@H](O)COc1cccc(Cl)c1)O2 [Example 266] and report it. > 1000 nM

----------
Biological target: human beta-3-adrenergic receptor (Homo sapiens, UniProt P13945)
Construct: Chinese hamster ovary (CHO) cells that stably express full-length human beta-3-adrenergic receptor
Assay: cAMP production (SPA) in CHO cells stably expressing human beta-3-adrenergic receptor, agonist activity
Settings: cAMP production in CHO cells expressing human beta-3-adrenergic receptor; compounds binned (≦1 μM or >1 μM); read-out: Beta-3 Agonistic Activity, EC50 values
PARAMETER: EC50

Examples with answers:
COc1ccc(SC[C@@H](O)CNC[C@H]2CCc3cc(-c4ccc(C(=O)O)cc4)ccc3O2)cc1 [Example 179] = > 1000 nM
O=C(O)c1ccc(-c2ccc3c(c2)CCC(CNC[C@H](O)COc2ccccc2)O3)cc1O (stereo in doubt) [Example 213] = ≤ 1000 nM
COC(=O)c1ccc(-c2ccc3c(c2)CC[C@H](CNC[C@H](O)COc2cccc4[nH]c5ccccc5c24)O3)cc1 [Example 102] = > 1000 nM

Check human beta-3-adrenergic receptor (Homo sapiens, UniProt P13945) data and give EC50 for Cc1cc(C)c(OCC(O)CNC[C@H]2CCc3cc(-c4ccc(C(=O)O)cc4)ccc3O2)c(C)c1 (stereo partly shown) [Example 222] . > 1000 nM

Check human beta-3-adrenergic receptor (Homo sapiens, UniProt P13945) data and give EC50 for NC(=O)c1cc2c(OCC(O)CNC[C@H]3CCc4cc(CCC(=O)O)ccc4O3)cccc2[nH]1 (stereo partly shown) [Example 270] . > 1000 nM

Check human beta-3-adrenergic receptor (Homo sapiens, UniProt P13945) data and give EC50 for CC(C)CNc1cc(-c2ccc3c(c2)CC[C@H](CNC[C@H](O)COc2ccccc2)O3)ccc1C(=O)O [Example 200] . ≤ 1000 nM

Check human beta-3-adrenergic receptor (Homo sapiens, UniProt P13945) data and give EC50 for COC(=O)c1cc(-c2ccc3c(c2)CC[C@H](CNC[C@H](O)COc2ccccc2)O3)cc2c1OCC2 [Example 130] . ≤ 1000 nM

----------
Target: human beta-3-adrenergic receptor (Homo sapiens, UniProt P13945)
Construct: Chinese hamster ovary (CHO) cells that stably express full-length human beta-3-adrenergic receptor
Assay: cAMP production (SPA) in CHO cells stably expressing human beta-3-adrenergic receptor, agonist activity
Conditions: cAMP production in CHO cells expressing human beta-3-adrenergic receptor; compounds binned (≦1 μM or >1 μM); read-out: Beta-3 Agonistic Activity, EC50 values
pEC50: −log10 of the molar value.
PARAMETER: pEC50

CCN(CC)c1cc(-c2ccc3c(c2)CC[C@H](CNC[C@H](O)COc2ccccc2)O3)ccc1C(=O)O = ≥ 6.00
CCOC(=O)c1nn(C)c(C)c1-c1ccc2c(c1)CC[C@H](CNC[C@H](O)COc1ccccc1)O2 = ≥ 6.00
COCCOc1cc(-c2ccc3c(c2)CC[C@H](CNC[C@H](O)COc2ccccc2)O3)ccc1C(=O)O = ≥ 6.00
O=C(O)c1ccc(-c2ccc3c(c2)CC[C@H](CNC[C@H](O)COc2ccccc2Cl)O3)cc1 = ≥ 6.00
CC(C)c1nc(-c2ccc3c(c2)CC[C@H](CNC[C@H](O)COc2ccccc2)O3)sc1C(=O)O = ≥ 6.00

Find the measured pEC50 of `O=C(O)CCc1ccc2c(c1)CC[C@H](CNC[C@H](O)COc1ccc(Cl)cc1)O2` and report it. < 6.00

Find the measured pEC50 of `COC(=O)c1ccc(-c2ccc3c(c2)CC[C@H](CNC[C@H](O)COc2ccccc2)O3)cc1` and report it. ≥ 6.00

Find the measured pEC50 of `COC(=O)c1cc(-c2ccc3c(c2)CC[C@H](CNC[C@H](O)COc2ccccc2)O3)cs1` and report it. ≥ 6.00

Find the measured pEC50 of `O=C(O)c1cc(-c2ccc3c(c2)CC[C@H](CNC[C@H](O)COc2ccccc2)O3)cs1` and report it. ≥ 6.00

Find the measured pEC50 of `CCCCNc1cc(-c2ccc3c(c2)CC[C@H](CNC[C@H](O)COc2ccccc2)O3)ccc1C(=O)O` and report it. ≥ 6.00

----------
Target: human beta-3-adrenergic receptor (Homo sapiens, UniProt P13945)
Construct: Chinese hamster ovary (CHO) cells that stably express full-length human beta-3-adrenergic receptor
Assay: cAMP production (SPA) in CHO cells stably expressing human beta-3-adrenergic receptor, agonist activity
Conditions: cAMP production in CHO cells expressing human beta-3-adrenergic receptor; compounds binned (≦1 μM or >1 μM); read-out: Beta-3 Agonistic Activity, EC50 values
PARAMETER: EC50

Examples with answers:
O=C(O)c1ccc(-c2ccc3c(c2)CC[C@H](CNC[C@H](O)CSc2cccc(C(F)(F)F)c2)O3)cc1 [Example 180] = > 1000 nM
O=C(O)c1cc(-c2ccc3c(c2)CC[C@H](CNC[C@H](O)COc2ccccc2)O3)cc2c1OCC2 [Example 185] = ≤ 1000 nM
CC(C)c1sc(-c2ccc3c(c2)CC[C@H](CNC[C@H](O)COc2ccccc2)O3)nc1C(=O)O [Example 191] = ≤ 1000 nM

Continue with the next molecule.
Find the measured EC50 of O=C(O)c1ccc2cc(-c3ccc4c(c3)CC[C@H](CNC[C@H](O)COc3ccccc3)O4)ccc2c1 [Example 182] and report it. ≤ 1000 nM

The origin of these recorded values is patent US6699860B2.
